Assay: Oral bioavailability in Sprague-Dawley rat at 1 mg/kg
Assay type: ADME, organism-based
Conditions: in vivo
Endpoint Name: bioavailability
Field: value (include unit after the number)

Smiles Str: CC(C)(Nc1cc(NCC2CCOCC2)c2ncc(-c3ccc(C(=O)NC4CC4)cc3)n2n1)C(F)(F)F
bioavailability: 24%
--
Smiles Str: O=C(NC1CC1)c1ccc(-c2cnc3c(NCC4CCOCC4)cc(Oc4ccccc4O)nn23)cc1
bioavailability: 0%
--
Smiles Str: O=C(NC1CC1)c1ccc(-c2cnc3c(NCC4CCOCC4)cc(Oc4ccccc4F)nn23)cc1
bioavailability: 16%
--
Smiles Str: N#Cc1ccc(-c2cc(NCC3CCOCC3)c3ncc(-c4ccc(C(=O)NC5CC5)cc4)n3n2)cc1
bioavailability: 0%

--- query ---
Endpoint output: bioavailability of "N#Cc1ccc(-c2cn3c(-c4ccc(C(=O)NC5CC5)cc4)cnc3c(NCC3CCOCC3)n2)cc1" . Value?
0%
